Assay: recombinant UMI read abundance after kanamycin selection (control-corrected) (log10(CPM+1)); higher = more efficient recombination; extreme values may be limits of the assay; sequences stand for … in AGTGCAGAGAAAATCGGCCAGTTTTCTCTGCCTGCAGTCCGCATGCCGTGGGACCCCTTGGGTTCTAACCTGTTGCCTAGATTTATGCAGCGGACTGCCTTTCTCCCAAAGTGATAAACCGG…AGGTTGGTTTCACT; site = the 11-nt donor;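 further: IS621 bridge recombinase in Escherichia coli cells against a fixed T5 target plasmid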
Categorize each record by its recombinant UMI read abundance (log10) using zone 1 = under 0.01, zone 2 = from 0.01 up to 1, zone 3 = 1 and over

Assign a bin to TATTTTGCATGGACCGGTTTTCCCGGTAATCCGTATTTGTG (site TATTTGGCTCA)
zone 1

Assign a bin to TAATGAGCATGGACCGGTTTTCCCGGTAATCCGTATTTGTG (site TAATGAGCTCT)
zone 2

Assign a bin to CGGAATACATGGACCGGTTTTCCCGGTAATCCGTATTTGTC (site CGGAATCCTAA)
zone 2

Assign a bin to CAGTCGACATGGACCGGTTTTCCCGGTAATCCGTATTTGGG (site CAGTCGACTCG)
zone 1

Assign a bin to CTAGGATCATGGACCGGTTTTCCCGGTAATCCGTATTTGAC (site CTAGAATCTGT)
zone 3

Assign a bin to ATTTGATCATGGACCGGTTTTCCCGGTAATCCGTATTTGTG (site ATTTGATCTCA)
zone 3

Assign a bin to CAAGCAGCATGGACCGGTTTTCCCGGTAATCCGTATTTGGT (site CAAGCAGCTAT)
zone 3

Assign a bin to GCTTGACCATGGACCGGTTTTCCCGGTAATCCGTATTTGAT (site GCTTGGCCTAT)
zone 2

Assign a bin to AATAATGCATGGACCGGTTTTCCCGGTAATCCGTATTTGGA (site AATTATGCTTC)
zone 2

Assign a bin to CAAGTAACATGGACCGGTTTTCCCGGTAATCCGTATTTGAC (site CTAGTATCTGT)
zone 2

Assign a bin to GGCAAGCCATGGACCGGTTTTCCCGGTAATCCGTATTTGAA (site GGCAAGCCTTT)
zone 2

Assign a bin to CGGTCATCATGGACCGGTTTTCCCGGTAATCCGTATTTGCT (site CGATCATCTAG)
zone 3

Assign a bin to TAAAGTCCATGGACCGGTTTTCCCGGTAATCCGTATTTGTG (site TAAAGTCCTGA)
zone 1

Assign a bin to GTAGTCACATGGACCGGTTTTCCCGGTAATCCGTATTTGCG (site GTAGTCGCTCG)
zone 3

Assign a bin to CTACCATCATGGACCGGTTTTCCCGGTAATCCGTATTTGAC (site CTACCATCTGT)
zone 3

Assign a bin to GCTACTCCATGGACCGGTTTTCCCGGTAATCCGTATTTGCC (site GCTACTACTGG)
zone 1

Assign a bin to GTATGCGCATGGACCGGTTTTCCCGGTAATCCGTATTTGTA (site GTATGCTCTTA)
zone 3

====

Assay: recombinant UMI read abundance after kanamycin selection (control-corrected) (log10(CPM+1)); higher = more efficient recombination; extreme values may be limits of the assay; sequences stand for … in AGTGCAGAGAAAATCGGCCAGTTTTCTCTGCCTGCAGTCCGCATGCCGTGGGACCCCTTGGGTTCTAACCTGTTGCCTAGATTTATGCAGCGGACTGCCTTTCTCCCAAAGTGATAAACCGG…AGGTTGGTTTCACT; site = the 11-nt donor
OBSERVABLE: recombinant UMI read abundance (log10)
Form rule: numeric answer, no unit written next to it.

Consider the sequence GTAGTACCATGGACCGGTTTTCCCGGTAATCCGTATTTGAC (site CTAGTATCTGT) and give its recorded recombinant UMI read abundance (log10).
0

Consider the sequence CACGGCCCATGGACCGGTTTTCCCGGTAATCCGTATTTGTA (site CACGGCCCTCA) and give its recorded recombinant UMI read abundance (log10).
0.0202

Consider the sequence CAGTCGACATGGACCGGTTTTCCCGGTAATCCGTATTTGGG (site CAGTCGACTTC) and give its recorded recombinant UMI read abundance (log10).
0.00419

Consider the sequence CGAGAACCATGGACCGGTTTTCCCGGTAATCCGTATTTGAT (site CGAGAACCTAT) and give its recorded recombinant UMI read abundance (log10).
0

Consider the sequence AACGTTTCATGGACCGGTTTTCCCGGTAATCCGTATTTGCT (site AACGTTTCTAG) and give its recorded recombinant UMI read abundance (log10).
2.48

Consider the sequence CCCTTGTCATGGACCGGTTTTCCCGGTAATCCGTATTTGGG (site CCCTTATCTCC) and give its recorded recombinant UMI read abundance (log10).
0.393

Consider the sequence AAGAGGACATGGACCGGTTTTCCCGGTAATCCGTATTTGCA (site AAGAGGACTTG) and give its recorded recombinant UMI read abundance (log10).
2.65

Consider the sequence CACTTGGCATGGACCGGTTTTCCCGGTAATCCGTATTTGGA (site CACTTGGCTGC) and give its recorded recombinant UMI read abundance (log10).
0.96

Consider the sequence AGGAAGACATGGACCGGTTTTCCCGGTAATCCGTATTTGCA (site AGGACTACTTG) and give its recorded recombinant UMI read abundance (log10).
0

Consider the sequence TGTTTGGCATGGACCGGTTTTCCCGGTAATCCGTATTTGTG (site TGTTTGGCTCA) and give its recorded recombinant UMI read abundance (log10).
0.161

Consider the sequence TGGACTACATGGACCGGTTTTCCCGGTAATCCGTATTTGAC (site GGGACTACTGT) and give its recorded recombinant UMI read abundance (log10).
0

Consider the sequence GCGAAAACATGGACCGGTTTTCCCGGTAATCCGTATTTGCT (site GCGAAACCTAG) and give its recorded recombinant UMI read abundance (log10).
0

Consider the sequence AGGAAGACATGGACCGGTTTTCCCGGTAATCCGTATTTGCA (site ATGCAGACTTG) and give its recorded recombinant UMI read abundance (log10).
0.701

Consider the sequence GGTCCAGCATGGACCGGTTTTCCCGGTAATCCGTATTTGTA (site GGTCCAACTTA) and give its recorded recombinant UMI read abundance (log10).
0

Consider the sequence CGATCGACATGGACCGGTTTTCCCGGTAATCCGTATTTGTT (site CGATCTACTAA) and give its recorded recombinant UMI read abundance (log10).
0.00746

Consider the sequence CCGTTCTCATGGACCGGTTTTCCCGGTAATCCGTATTTGGG (site CCTTTCTCTCC) and give its recorded recombinant UMI read abundance (log10).
0

Consider the sequence GTTGTTCCATGGACCGGTTTTCCCGGTAATCCGTATTTGAT (site GTTGTTCCTAC) and give its recorded recombinant UMI read abundance (log10).
0.00806

Consider the sequence GCCACTTCATGGACCGGTTTTCCCGGTAATCCGTATTTGTT (site GCCACTTCTAA) and give its recorded recombinant UMI read abundance (log10).
0.855

Consider the sequence ATTGTAACATGGACCGGTTTTCCCGGTAATCCGTATTTGCT (site AATGTAACTAG) and give its recorded recombinant UMI read abundance (log10).
1.49

Consider the sequence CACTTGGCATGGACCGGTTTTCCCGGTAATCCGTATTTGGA (site CACTTGGCTTG) and give its recorded recombinant UMI read abundance (log10).
0.926

Consider the sequence GTTGAGACATGGACCGGTTTTCCCGGTAATCCGTATTTGGT (site ATTGAGACTAC) and give its recorded recombinant UMI read abundance (log10).
0.953

Consider the sequence GATTAAACATGGACCGGTTTTCCCGGTAATCCGTATTTGCG (site GATTAAACTCG) and give its recorded recombinant UMI read abundance (log10).
0.992

Consider the sequence CGAGGACCATGGACCGGTTTTCCCGGTAATCCGTATTTGGG (site CGAGCACCTCC) and give its recorded recombinant UMI read abundance (log10).
0

Consider the sequence CCCGCGGCATGGACCGGTTTTCCCGGTAATCCGTATTTGGG (site CCCGCGGCTCC) and give its recorded recombinant UMI read abundance (log10).
0.0266

Consider the sequence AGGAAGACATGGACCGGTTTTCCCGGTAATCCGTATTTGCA (site TGGAAAACTTG) and give its recorded recombinant UMI read abundance (log10).
0.756

Consider the sequence GGATAGCCATGGACCGGTTTTCCCGGTAATCCGTATTTGCC (site GGATAGCCTGG) and give its recorded recombinant UMI read abundance (log10).
0

Consider the sequence CGGACATCATGGACCGGTTTTCCCGGTAATCCGTATTTGCC (site CGGACATCTAG) and give its recorded recombinant UMI read abundance (log10).
0.305

Consider the sequence CTACTAACATGGACCGGTTTTCCCGGTAATCCGTATTTGGT (site CTACTAACTGC) and give its recorded recombinant UMI read abundance (log10).
0

Consider the sequence CGTTCATCATGGACCGGTTTTCCCGGTAATCCGTATTTGCT (site CGGTCATCTAG) and give its recorded recombinant UMI read abundance (log10).
0

Consider the sequence CGGACTTCATGGACCGGTTTTCCCGGTAATCCGTATTTGCT (site CGGACGTCTAG) and give its recorded recombinant UMI read abundance (log10).
0

Consider the sequence AATCGTCCATGGACCGGTTTTCCCGGTAATCCGTATTTGAT (site AACCGTCCTAT) and give its recorded recombinant UMI read abundance (log10).
0.0167

Consider the sequence CCCGATCCATGGACCGGTTTTCCCGGTAATCCGTATTTGTG (site CCCGATCCTCA) and give its recorded recombinant UMI read abundance (log10).
1.73

Consider the sequence CAATCCCCATGGACCGGTTTTCCCGGTAATCCGTATTTGCT (site CAATACCCTAG) and give its recorded recombinant UMI read abundance (log10).
1.5

Consider the sequence GCGAAAACATGGACCGGTTTTCCCGGTAATCCGTATTTGCC (site GCGAAAACTTG) and give its recorded recombinant UMI read abundance (log10).
0

Consider the sequence GGTTATCCATGGACCGGTTTTCCCGGTAATCCGTATTTGCT (site GCTTATCCTAG) and give its recorded recombinant UMI read abundance (log10).
0.196

Consider the sequence CAAACAGCATGGACCGGTTTTCCCGGTAATCCGTATTTGCT (site CAATCAGCTAG) and give its recorded recombinant UMI read abundance (log10).
0

Data origin, for the record: the supplement of paper PMC11208160
